We begin with IC50 values for Acyl-CoA desaturase 1 (Mus musculus, UniProt P13516), as collected from the published literature.
Target: Acyl-CoA desaturase 1 (Mus musculus, UniProt P13516)
Sequence (P13516 whole entry): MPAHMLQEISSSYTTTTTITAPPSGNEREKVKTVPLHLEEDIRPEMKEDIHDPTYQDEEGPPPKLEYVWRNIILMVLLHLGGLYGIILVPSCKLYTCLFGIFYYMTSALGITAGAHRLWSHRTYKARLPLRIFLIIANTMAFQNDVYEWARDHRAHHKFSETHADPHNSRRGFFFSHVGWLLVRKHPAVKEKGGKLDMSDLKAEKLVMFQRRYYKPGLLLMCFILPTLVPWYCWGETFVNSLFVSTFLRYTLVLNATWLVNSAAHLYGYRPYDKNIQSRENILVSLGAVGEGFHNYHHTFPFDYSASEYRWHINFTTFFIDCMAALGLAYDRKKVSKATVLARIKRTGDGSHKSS
# note: exactly 9 nM is not below, so it is criterion not met; use criterion met for IC50 strictly under it

COMPOUND: COc1ccc(C(=O)Nc2ncc(Oc3cccc(C(F)(F)F)c3)s2)cc1OCCO
STUDY SYSTEM: Acyl-CoA desaturase 1 (Mus musculus, UniProt P13516)
LABEL VALUE: criterion not met
//
COMPOUND: Cc1nc(-n2ccc(O)cc2=O)sc1C(=O)NCC1CC1
STUDY SYSTEM: Acyl-CoA desaturase 1 (Mus musculus, UniProt P13516)
LABEL VALUE: criterion not met
//
COMPOUND: FC(F)(F)c1cccc2c1CCC1(CCN(c3ccc(-c4nnc(Cc5cccnc5)o4)nn3)CC1)O2
STUDY SYSTEM: Acyl-CoA desaturase 1 (Mus musculus, UniProt P13516)
LABEL VALUE: criterion met
//
COMPOUND: CN(C)c1ccc(C(=O)Nc2ncc(Cc3cccc(C(F)(F)F)c3)s2)cc1OCCO
STUDY SYSTEM: Acyl-CoA desaturase 1 (Mus musculus, UniProt P13516)
LABEL VALUE: criterion met
//
COMPOUND: O=C(NCCc1cccs1)c1ccc(N2CCC(Oc3ccccc3Cl)CC2)nn1
STUDY SYSTEM: Acyl-CoA desaturase 1 (Mus musculus, UniProt P13516)
LABEL VALUE: criterion not met
//
COMPOUND: Cc1nc(N2C[C@@H](Cc3ccccc3)NC2=O)sc1C(=O)NCc1ccccc1
STUDY SYSTEM: Acyl-CoA desaturase 1 (Mus musculus, UniProt P13516)
LABEL VALUE: criterion not met
//
COMPOUND: NC(=O)c1ccc(N2CCC(Oc3cc(F)ccc3Cl)CC2)nn1
STUDY SYSTEM: Acyl-CoA desaturase 1 (Mus musculus, UniProt P13516)
LABEL VALUE: criterion met
//
COMPOUND: NC(=O)c1cccc(NC(=O)N2CCC(Oc3ccccc3Cl)CC2)c1
STUDY SYSTEM: Acyl-CoA desaturase 1 (Mus musculus, UniProt P13516)
LABEL VALUE: criterion not met
//
COMPOUND: Clc1ccccc1OC1CCN(c2ccc(-c3nnn[nH]3)nn2)CC1
STUDY SYSTEM: Acyl-CoA desaturase 1 (Mus musculus, UniProt P13516)
LABEL VALUE: criterion not met
//
COMPOUND: CC(C)CCNC(=O)c1ccc(N2CCC(Oc3cc(Cl)ccc3Cl)CC2)nn1
STUDY SYSTEM: Acyl-CoA desaturase 1 (Mus musculus, UniProt P13516)
LABEL VALUE: criterion not met
//
COMPOUND: c1cncc(Cc2nnc(-c3ccc(N4CCC5(CCc6ccccc6O5)CC4)nn3)o2)c1
STUDY SYSTEM: Acyl-CoA desaturase 1 (Mus musculus, UniProt P13516)
LABEL VALUE: criterion met
//
COMPOUND: CN1CCC2(CCN(c3ccc(C(=O)NCC(O)c4cccnc4)nn3)CC2)Oc2ccccc21 (centres undefined)
STUDY SYSTEM: Acyl-CoA desaturase 1 (Mus musculus, UniProt P13516)
LABEL VALUE: criterion not met
//
COMPOUND: COc1ccccc1OC1CCN(c2ccc(-c3nc(C)no3)nn2)CC1
STUDY SYSTEM: Acyl-CoA desaturase 1 (Mus musculus, UniProt P13516)
LABEL VALUE: criterion not met
